These measurements were taken from the supplement of paper PMC7411054.

Hi there, I'd appreciate the recorded phenotypically active for every entry that follows.
Tested on: A549-TP53BP1-CLTA
Experiment: phenotypically active (imaging signature differs from DMSO and reproducible) at any of 0.3-9 uM (binary (1 = active, 0 = inactive)); higher = active
Settings: treatment time: 24 h
Respond using a number only.

Consider the compound CC(C)(Oc1ccc(C2CC2(Cl)Cl)cc1)C(=O)O (stereo not drawn) [ciprofibrate] and give its measured phenotypically active.
0

Also `O=[N+]([O-])c1cc([N+](=O)[O-])c(/C=C/c2ccc(Cl)c(Cl)c2)cc1/C=C/c1ccc(Cl)c(Cl)c1` , if possible.
0

Also `CC[C@H](C)C(=O)O[C@H]1C[C@H](O)C=C2C=C[C@H](C)[C@H](CC[C@@H](O)C[C@@H](O)CC(=O)O)[C@H]21` , if possible.
0

Also `CCNC(=O)c1noc(-c2cc(C(C)C)c(O)cc2O)c1-c1ccc(CN2CCOCC2)cc1` , if possible.
1

Also O=C(O)CCCc1ccccc1 [Sodium 4-Phenylbutyrate] , if possible.
0

Also O=C(NCC1CCCCN1)c1cc(OCC(F)(F)F)ccc1OCC(F)(F)F (stereo not drawn) [flecainide] , if possible.
0

Also CCCCCC1CC1CC1CC1CCCCCCCC(=O)O (stereo not drawn) , if possible.
0

Also O=C(O)[C@@H]1[C@H]2C[C@H]3c4[nH]c5ccccc5c4CCN3C[C@@H]2CC[C@@H]1O [Yohimbinic acid monohydrate] , if possible.
1
